The measured values listed here are drawn from patent US9936700B2.

Here the recorded chromatographic logP is given for each entry.
Assay: log P by reversed-phase HPLC (EEC Directive 79/831 Annex V.A8)
Assay type: physicochemical
Conditions: reversed-phase C18 HPLC column; neutral range, pH 7.8, aqueous ammonium hydrogencarbonate/acetonitrile; read-out: logP [b] = log P (neutral)
Excerpt: NMR data and log P values: log P (HCOOH)=log P[a] log P (neutral)=log P[b] ^[a] […] Called log P (HCOOH) in the table. ^[b] […] Called log P (neutral) in the table.
Output spec: single numeric token, no unit.

smiles_code	measured_metric	observed_measurement
Cc1cnccc1-c1cnc2cc(C(F)(F)F)ccc2n1	chromatographic logP	2.89

Exercise: Fill in: chromatographic logP of CCc1cnccc1-c1cnc2cc3c(cc2n1)OC(F)(F)O3 is ___
Solution: 3.23

Exercise: Fill in: chromatographic logP of O=c1cnc2cc3c(cc2[nH]1)OC(F)(F)O3 is ___
Solution: 1.33

Exercise: Fill in: chromatographic logP of O=c1cnc2ccc(C(F)(F)F)cc2[nH]1 is ___
Solution: 1.65

Exercise: Fill in: chromatographic logP of O=c1cnc2cc(C(F)(F)F)ccc2[nH]1 is ___
Solution: 1.71
